Test: NCI Yeast Anticancer Drug Screen. Data for the bub3 strain (AID 167)
Details: S. cerevisiae bub3 mutant strain, at 50.0 µM (retest, dose inferred, filed as 5.0)
The panel holds about 79,000 compounds, 15% with a hit somewhere; the sample as a whole holds those more often. Activity calls are given as the source filed them. No stated cut-off is given here; in the data, active means growth inhibition above about 70%; inactive means the rest.
Outcome codes: true (1) = active, false (0) = inactive

O=[N+]([O-])c1ccc2c(c1)/C(=N/N=C1c3ccccc3Cc3ccccc31)c1cc([N+](=O)[O-])cc([N+](=O)[O-])c1-2    true (1)
Cn1c(-c2ccc(/C=N\N3CCN(/N=C/c4ccc(-c5c[n+]6ccccc6n5C)cc4)CC3)cc2)c[n+]2ccccc12    true (1)
CC(=O)Nc1ccc(/C=C/[N+](=O)[O-])cc1    false (0)
CC(/C=C/c1ccccc1)=N\NC(N)=S    false (0)
OC1(c2ccccc2)CCCc2ccc(Cl)cc21 (stereo not given)    false (0)

----------
Each entry below lists one item and its recorded growth inhibition value.
Experiment: NCI Yeast Anticancer Drug Screen. Data for the rad50EPP+ strain (AID 151);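 further: 0% = growth of vehicle-treated control cultures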
Conditions: S. cerevisiae rad50 mutant strain, at 11.0 µM, hits give high values
This is part of a sample that, as a whole, favours compounds with a hit. Of some 79,000 tested, about 15% had one in any assay.
Measured parameter: growth inhibition (%)

Cc1cc(C(C)(C)CC(C)(C)C)ccc1O    1
CC(C)(CCCCC(C)(C)[N+](C)(C)C)[N+](C)(C)C    0
OC(/C=C/c1ccccc1)(Cc1cc(-c2ccccc2)n[nH]1)c1ccccc1 (stereo unspecified)    14
CC1=C(C(=O)NCc2ccccc2)C(c2ccccc2)C(C(=O)NCc2ccccc2)=C(C)N1    3
CC(C)(C)C1=CC(=CC=C2C=CN(CCCCCCCCCCCO)C=C2)C=C(C(C)(C)C)C1=O    -2
COC1=C(OC)C(=O)C(Sc2ccc3ccccc3c2)=CC1=O    67
CCCC(=O)Oc1ccc(/C=N/NC(N)=S)nc1    0
COc1ccc(/C=C/C(=O)c2ccccc2)cc1OC    28
O=C1N=C2SC=C(NC(=S)Nc3ccccc3)N2NC12c1ccccc1-c1ccccc12    5
CCCCC/C(=C(\C#N)C(=O)OCC)c1ccccc1    13
Nc1n[n+]([O-])c2ccc(Cl)cc2[n+]1[O-]    88

----------
Test: NCI Yeast Anticancer Drug Screen. Data for the rad50EPP+ strain (AID 151);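 further: 0% = growth of vehicle-treated control cultures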
Settings: S. cerevisiae rad50 mutant strain, at 33.0 µM, hits give high values
About 79,000 compounds went through this panel and 15% of them were active in at least one assay; those are over-represented in the sample as a whole.
Binary call on growth inhibition: true from 60% upward, false beneath that.

O=[N+]([O-])c1cccc2nc3ccccc3c(NCCCn3ccnc3[N+](=O)[O-])c12    true
CC[N+]1(C)CCC(O)(c2ccc(OC)cc2)C(C(=O)c2ccc(OC)cc2)C1 (stereo unspecified)    false
O=C1C(=O)c2ccccc2C(O)=C1C(C1=C(O)c2ccccc2C(=O)C1=O)c1ccc(Cl)cc1    false
CCC(=O)c1cc(C(=O)C(=S)SC)cc(C(=O)C(=S)SC)c1    true
COc1cc2cc3c4cc(OC)c(OC)cc4cc[n+]3c(C)c2cc1OC    false

----------
Assay: NCI Yeast Anticancer Drug Screen. Data for the mlh1 rad18 strain (AID 175)
Details: S. cerevisiae mlh1 rad18 strain growth inhibition; at 50.0 µM; hits give high values
Experimental: Growth inhibition of yeast strains with defined genetic alterations is measured as a screen for potential anti-cancer activity. Selected strains with alterations in DNA damage repair or cell cycle control were exposed to compounds and growth inhibition was measured relative to vehicle treated controls. The strain used in this assay is mlh1 rad18
About 79,000 compounds went through this panel and 15% of them were active in at least one assay; those are over-represented in the sample as a whole.
Measured parameter: growth inhibition (%)

N=C1N=Nc2nc(C3(c4nc5n(c4O)C(=N)N=N5)Cc4ccccc4C3=O)c(O)n21 (stereo not given)    92.7
C/C=C/SC(=Nc1ccccc1)Nc1ccccc1    66.3
CC1=C(C(=O)NCc2ccccc2)C(c2ccccc2)C(C(=O)NCc2ccccc2)=C(C)N1    93.1
CCOc1c(N=Nc2ccccc2OC)c(C)nn1C(=S)S    98.3
COc1ccc(C(=O)Oc2ccccc2Br)cc1    7.85
CCO/C(C)=C(/C#N)C(N)=S    42.9
COC(=O)C1=C(C(=O)OC)C(C(=O)OC)C(C(=O)OC)C(C(=O)OC)(C(=O)OC)C(C(=O)OC)=C1C(=O)OC (stereo not given)    67.4
CC(C)(C)C1=CC(=CC=C2C=CN(CCCCCCCCCCCO)C=C2)C=C(C(C)(C)C)C1=O    99.5
CCn1c(O)c(C=Nc2ccccc2)s/c1=N/Nc1nc(-c2ccccc2)cs1    61.8
CN(C)Cc1cc(N=Nc2ccc(Cl)cc2)ccc1OC(=O)c1ccccc1    98.5
